Attribution: paper PMC5541792

- TEST_SUMMARY: Stability of analytes in rat plasma samples (method validation)
- Assay type: in vitro ADME
- TEST_CONDITIONS: 4°C for 24 h, low QC nominal concentration, n = 6
REPORTED_METRIC: Autosampler stability (24 h) Mean (%)
// units = %; emit number, no label

[in] Please give the measured Autosampler stability (24 h) Mean for this compound: "C[C@@]12C[C@@]3(O)O[C@@H](O1)[C@]1(COC(=O)c4ccccc4)[C@H]3C[C@@]12O[C@@H]1O[C@H](CO)[C@@H](O)[C@H](O)[C@H]1O"
[out] 103.46

[in] Please give the measured Autosampler stability (24 h) Mean for this compound: "CC1(C)[C@@H](O[C@H]2O[C@H](C(=O)O)[C@@H](O)[C@H](O)[C@H]2O[C@@H]2O[C@H](C(=O)O)[C@@H](O)[C@H](O)[C@H]2O)CC[C@]2(C)[C@H]3C(=O)C=C4[C@@H]5C[C@@](C)(C(=O)O)CC[C@]5(C)CC[C@@]4(C)[C@]3(C)CC[C@@H]12"
[out] 97.71

[in] Please give the measured Autosampler stability (24 h) Mean for this compound: "O=C(/C=C/c1ccc(O)cc1)c1ccc(O)cc1O"
[out] 106.19

[in] Please give the measured Autosampler stability (24 h) Mean for this compound: CC12CC(O)C3CC1(OC1OC(CO)C(O)C(O)C1O)C3(COC(=O)c1ccccc1)C(=O)O2 (centres unmarked)
[out] 97.93

[in] Please give the measured Autosampler stability (24 h) Mean for this compound: "O=C1C[C@@H](c2ccc(O)cc2)Oc2cc(O)ccc21"
[out] 98.45
